- Test system: Isolated ventricular myocytes
- PROTOCOL SUMMARY: Inhibitory action on calcium overload in vitro, Method A: veratrine-treated myocytes, survival rate
- Type: cell-based, male Sprague-Dawley rat
- Parameters: key: ++: The cells survived almost completely at 10^-7 M.; +: The cells survived almost completely at 10^-6 M.; The cells died almost completely at 10 M^-6 M
- EXPERIMENTAL CONTEXT: 30 minutes pretreatment, veratrine 100 µg/ml, observed five minutes later
MEASURED PARAMETER: Survival Rate of Cells

                                   compound  reported_measurement
0  CN(CCCN1C(=O)CSC1c1cc(C(C)(C)C)c(O)c(C(C)(C)C)c1)CCOc1ccc2c(c1)OCO2 (stereo not drawn)                    ++
1  CCN(CCCN1C(=O)CSC1c1cc(C(C)(C)C)c(O)c(C(C)(C)C)c1)CCOc1ccc2c(c1)OCO2 (stereo not drawn)                    ++
2  CN(CCCCN1C(=O)CSC1c1cc(C(C)(C)C)c(O)c(C(C)(C)C)c1)CCOc1ccc2c(c1)OCO2 (stereo not drawn)                    ++
3  CN(CCCCCN1C(=O)CSC1c1cc(C(C)(C)C)c(O)c(C(C)(C)C)c1)CCOc1ccc2c(c1)OCO2 (stereo not drawn)                    ++
4  COc1ccc(CCN(C)CCCN2C(=O)CSC2c2cc(C(C)(C)C)c(O)c(C(C)(C)C)c2)cc1OC (stereo not drawn)                     +
5  COc1ccc([C@@H]2Sc3ccccc3N(CCN(C)C)C(=O)[C@@H]2OC(C)=O)cc1 [Diltiazem, reference compound]                     -
